# study_system: Estrogen receptor beta (Homo sapiens) (UniProt Q92731)
# Sequence (Q92731 whole entry): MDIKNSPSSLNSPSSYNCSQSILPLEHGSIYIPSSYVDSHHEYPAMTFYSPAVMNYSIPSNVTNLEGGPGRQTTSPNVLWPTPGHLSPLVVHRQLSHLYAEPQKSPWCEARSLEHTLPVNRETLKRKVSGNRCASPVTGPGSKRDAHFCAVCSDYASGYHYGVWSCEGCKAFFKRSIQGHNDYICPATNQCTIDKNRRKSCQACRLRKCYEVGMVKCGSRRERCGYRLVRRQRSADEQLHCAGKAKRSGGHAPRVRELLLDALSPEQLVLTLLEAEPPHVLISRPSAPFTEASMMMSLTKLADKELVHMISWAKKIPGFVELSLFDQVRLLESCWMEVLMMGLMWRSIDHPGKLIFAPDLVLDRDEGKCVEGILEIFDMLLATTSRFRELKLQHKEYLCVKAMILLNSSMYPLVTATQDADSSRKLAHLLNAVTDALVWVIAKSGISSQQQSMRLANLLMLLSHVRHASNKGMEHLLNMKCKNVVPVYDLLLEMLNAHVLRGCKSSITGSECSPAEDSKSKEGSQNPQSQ
# measurement_notes: Transcriptional antagonistic efficacy against ERbeta at 10e-6 M by cotransfectio in HEC-1 cells
# Type: functional, cell-based
property_measured: Efficacy (%)

The cases that follow already have their Efficacy on record.
Oc1ccc(C(=C2CCCCC2)c2ccc(O)cc2)cc1 : 4
Oc1ccc(C(=C2C3CCCC2CCC3)c2ccc(F)cc2)cc1 : 16
Oc1ccc(C(=C2C3CC4CC(C3)CC2C4)c2ccc(O)cc2)cc1 : 2

I. CC12CCC(CC1=C(c1ccc(O)cc1)c1ccc(O)cc1)C2(C)C (stereo not drawn)
II. Oc1ccc(C(=C2C3CCCC2CCC3)c2ccccc2)cc1
Request: I or II : whose Efficacy is greater? Answer format: the label of the selected item.
Response: II
(II: 22%, I: 4%)

P. Oc1ccc(C(=C2CC3CCC2C3)c2ccc(O)cc2)cc1 (stereo not drawn)
Q. CC1(C)CC(=C(c2ccc(O)cc2)c2ccc(O)cc2)C[C@]2(C)C(C)(C)[C@H]3CC[C@@]12C3
R. Oc1ccc(C2(c3ccc(O)cc3)C3CCCC2CCC3)cc1
S. Oc1ccc(C(=C2C3CCCC2CCC3)c2ccc(O)cc2)cc1
Request: Please put the entries in order of rising Efficacy. List the labels in the requested order.
Response: S, P, Q, R
(S: 2%, P: 3%, Q: 15%, R: 78%)

1. Oc1ccc(C(c2ccc(O)cc2)C2C3CCCC2CCC3)cc1 (stereo not drawn)
2. CC12CCC(C1)C(C)(C)C2=C(c1ccc(O)cc1)c1ccc(O)cc1 (stereo not drawn)
3. Oc1ccc(C(=C2CC3CC2C2CCCC32)c2ccc(O)cc2)cc1 (stereo not drawn)
Request: Order each entry by recorded Efficacy, climbing from the minimum. Please list each label once, in the requested order.
Response: 3, 2, 1
(3: 2%, 2: 13%, 1: 55%)

###

# study_system: Estrogen receptor (Homo sapiens) (UniProt P03372)
# Sequence (whole entry): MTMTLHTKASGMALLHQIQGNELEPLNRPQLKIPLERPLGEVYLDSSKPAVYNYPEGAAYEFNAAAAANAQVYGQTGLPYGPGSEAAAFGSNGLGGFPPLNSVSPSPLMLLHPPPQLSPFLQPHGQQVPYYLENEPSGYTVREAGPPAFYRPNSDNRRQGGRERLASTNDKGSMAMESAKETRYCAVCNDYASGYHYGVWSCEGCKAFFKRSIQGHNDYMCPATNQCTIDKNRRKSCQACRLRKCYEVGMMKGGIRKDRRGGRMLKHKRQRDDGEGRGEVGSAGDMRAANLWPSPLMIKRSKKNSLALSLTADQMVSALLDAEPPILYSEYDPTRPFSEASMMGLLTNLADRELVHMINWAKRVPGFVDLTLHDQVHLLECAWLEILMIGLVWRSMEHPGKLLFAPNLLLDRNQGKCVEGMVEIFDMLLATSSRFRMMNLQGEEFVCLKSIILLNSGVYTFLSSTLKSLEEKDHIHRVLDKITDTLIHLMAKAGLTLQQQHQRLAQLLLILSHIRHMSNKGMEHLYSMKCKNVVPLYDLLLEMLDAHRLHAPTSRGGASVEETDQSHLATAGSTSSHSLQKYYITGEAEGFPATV
# measurement_notes: Transcriptional agonistic efficacy against ER alpha at 10e-6 M by cotransfection in HEC-1 cells
# Assay type: functional, cell-based
property_measured: Efficacy (%)

Oc1ccc(C(=C2CC3CCC2C3)c2ccc(O)cc2)cc1 (stereo unspecified) : 22

P. Oc1ccc(C(=C2CC3CC2C2CCCC32)c2ccc(O)cc2)cc1 (stereo unspecified)
Q. Oc1ccc(C2(c3ccc(O)cc3)C3CCCC2CCC3)cc1
Request: Lab note: check whether P or Q shows the higher recorded Efficacy. Response format: the label of the selected entry.
Response: P

###

# study_system: Estrogen receptor beta (Homo sapiens)
# measurement_notes: Binding affinity for purified human Estrogen receptor beta was determined using a competitive radiometric binding assay with estradiol
property_measured: RBA (%)

Reference set, count: 3
Oc1ccc(C2(c3ccc(O)cc3)C3CCCC2CCC3)cc1 : 0.25
Oc1ccc(C(=C2CCCCC2)c2ccc(O)cc2)cc1 : 334
Oc1ccc(C(=C2C3CC4CC(C3)CC2C4)c2ccc(O)cc2)cc1 : 317

I. Oc1ccc(C(=C2C3CCCC2CCC3)c2cccc(O)c2)cc1
II. CC12CCC(C1)C(C)(C)C2=C(c1ccc(O)cc1)c1ccc(O)cc1 (stereo not drawn)
Request: In the pair I and II , the larger recorded RBA belongs to which? Pick one; state its label.
Response: I
(I: 89%, II: 8%)

###

# study_system: Estrogen receptor (Homo sapiens)
# measurement_notes: Transcriptional antagonistic efficacy agains ER alpha at 10e-6 M by cotransfection in HEC-1 cells
# Format: functional, cell-based
property_measured: Efficacy (%)

Oc1ccc(C(=C2C3CCCC2CCC3)c2ccccc2)cc1 : 83
CC1(C)CC(=C(c2ccc(O)cc2)c2ccc(O)cc2)C[C@]2(C)C(C)(C)[C@H]3CC[C@@]12C3 : 30
Oc1ccc(C(=C2CC3CCC2C3)c2ccc(O)cc2)cc1 (stereo not drawn) : 32
Oc1ccc(C(=C2C3CCCC2CCC3)c2ccc(O)cc2)cc1 : 23

1. Oc1ccc(C(=C2CC3CC2C2CCCC32)c2ccc(O)cc2)cc1 (stereo not drawn)
2. Oc1ccc(C(=C2CCCCC2)c2ccc(O)cc2)cc1
3. Oc1ccc(C(=C2C3CCCC2CCC3)c2ccc(F)cc2)cc1
Request: List items by Efficacy in falling order. Present the labels in the sequence the task asks for.
Response: 3, 1, 2

###

# study_system: Estrogen receptor (Homo sapiens)
# measurement_notes: Binding affinity for purified human Estrogen receptor alpha was determined using a competitive radiometric binding assay with [3H]estradiol
property_measured: RBA (%)

Sample answers from the record:
Oc1ccc(C(=C2C3CC4CC(C3)CC2C4)c2ccc(O)cc2)cc1 : 243
Oc1ccc(C(c2ccc(O)cc2)C2C3CCCC2CCC3)cc1 (stereo not given) : 15
CC12CCC(CC1=C(c1ccc(O)cc1)c1ccc(O)cc1)C2(C)C (stereo not given) : 57

A. Oc1ccc(C(c2ccc(O)cc2)C2CCCCC2)cc1
B. Oc1ccc(C2(c3ccc(O)cc3)C3CCCC2CCC3)cc1
C. Oc1ccc(C(=C2CC3CCC2C3)c2ccc(O)cc2)cc1 (stereo not given)
Request: Please rank these molecules by RBA in descending order. Kindly provide the labels arranged according to the requested ordering.
Response: C, A, B

###

# study_system: Estrogen receptor (Homo sapiens)
# measurement_notes: Transcriptional agonistic efficacy against ER alpha at 10e-8 M by cotransfection in HEC-1 cells
# Assay type: functional, cell-based
property_measured: Efficacy (%)

Please review the entries below; each comes with its answer.
Oc1ccc(C(=C2C3CCCC2CCC3)c2ccccc2)cc1 : 71
Oc1ccc(C(=C2C3CCCC2CCC3)c2ccc(O)cc2)cc1 : 25
Oc1ccc(C2(c3ccc(O)cc3)C3CCCC2CCC3)cc1 : 1

a. Oc1ccc(C(c2ccc(O)cc2)C2C3CCCC2CCC3)cc1 (stereo not drawn)
b. Oc1ccc(C(=C2C3CCCC2CCC3)c2ccc(F)cc2)cc1
c. Oc1ccc(C(=C2CC3CC2C2CCCC32)c2ccc(O)cc2)cc1 (stereo not drawn)
d. Oc1ccc(C(=C2CCCCC2)c2ccc(O)cc2)cc1
Request: Rank entries according to their Efficacy, from the largest number down. # the answer lists labels in the order requested
Response: b, c, a, d

A. Oc1ccc(C(=C2C3CCCC2CCC3)c2ccc(O)c(O)c2)cc1
B. CC1(C)CC(=C(c2ccc(O)cc2)c2ccc(O)cc2)C[C@]2(C)C(C)(C)[C@H]3CC[C@@]12C3
C. CC12CCC(CC1=C(c1ccc(O)cc1)c1ccc(O)cc1)C2(C)C (stereo not drawn)
Request: Put the compounds in ascending order of Efficacy. Kindly provide the labels arranged according to the requested ordering.
Response: B, A, C
(B: 1%, A: 15%, C: 24%)

a. Oc1ccc(C(=C2C3CC4CC(C3)CC2C4)c2ccc(O)cc2)cc1
b. CC12CCC(C1)C(C)(C)C2=C(c1ccc(O)cc1)c1ccc(O)cc1 (stereo not drawn)
Request: Form: Entry with minimum Efficacy (choose one): a / b Please respond with the label that marks your chosen entry.
Response: b

###

# study_system: UniProt:Q92731
# measurement_notes: Transcriptional agonistic efficacy against ER beta at 10e-8 M by cotransfection in HEC-1 cells
# Assay type: functional, cell-based
property_measured: Efficacy (%)

Oc1ccc(C(=C2CC3CCC2C3)c2ccc(O)cc2)cc1 (stereo not drawn) : 3

1. Oc1ccc(C2(c3ccc(O)cc3)C3CCCC2CCC3)cc1
2. Oc1ccc(C(c2ccc(O)cc2)C2C3CCCC2CCC3)cc1 (stereo not drawn)
3. Oc1ccc(C(=C2C3CCCC2CCC3)c2ccccc2)cc1
4. CC12CCC(CC1=C(c1ccc(O)cc1)c1ccc(O)cc1)C2(C)C (stereo not drawn)
5. CC1(C)CC(=C(c2ccc(O)cc2)c2ccc(O)cc2)C[C@]2(C)C(C)(C)[C@H]3CC[C@@]12C3
Request: # ascending order, key=Efficacy # respond with the labels, arranged in the requested order
Response: 5, 1, 4, 3, 2
(5: 1%, 1: 2%, 4: 3%, 3: 8%, 2: 21%)
